Molecular target: MS2 coat protein, dlFG mutant (Escherichia phage MS2, UniProt P03612, del68-81insG)
Test: 4 mM Mg2+; L-tryptophan 2.4 mM; RNA-MaP array; 100 mM Tris-HCl pH 7.5, 80 mM KCl, 4 mM MgCl2, 0.1 mg/mL BSA, 1 mM DTT, 0.01 mg/mL yeast tRNA, 0.01% Tween-20; protein 1.5 nM to 3 uM; 37 C (Table S3)
Conditions: chain copies: 2; label: tethered by stalled RNA polymerase
Readout kind: Kd (nM)
State just the number; it will be interpreted in nM.

Q: Entry Eterna 7733059 (Exclusion - Tryptophan B) (ssRNA) RNA: GGAGUCGGCACGGCCGCCACUGCGGUGGUGUGACAUGAGGAUCACCCAUGUUGUCAUGCGGCCCUUAGGACCGGGUGGCGGUUCC has what Kd?
Ans: 57
